- ASSAY_METHOD_TEXT: Chrom logD determination (fast-gradient HPLC)
- DETAILS: pH 7.4
For each of the molecules below, state its Chrom logD.

Entry Clc1ncnc2c1ccn2Cc1cn(-[c-]2cccc2)nn1.[Fe+2].c1cc[cH-]c1 [Compound 11c] : reported Chrom logD = ? 5.62

Entry CC([c-]1cccc1)n1cc(Cn2cnc3ncnc(Cl)c32)nn1.[Fe+2].c1cc[cH-]c1 (stereo not shown) [Compound 15b] : reported Chrom logD = ? 4.15

Entry [Fe+2].c1cc[c-](-c2cn(CCn3cnc4c(N5CCCC5)ncnc43)nn2)c1.c1cc[cH-]c1 [Compound 35b] : reported Chrom logD = ? 3.58

Entry CC([c-]1cccc1)n1cc(Cn2cnc3c(N)ncnc32)nn1.[Fe+2].c1cc[cH-]c1 (stereo not shown) [Compound 12b] : reported Chrom logD = ? 3.09

====

- ASSAY_METHOD_TEXT: Turbidimetric kinetic solubility assay
- DETAILS: PBS, 1% DMSO, 37 °C, 2 h, estimated range
READOUT_TYPE: Kinetic Solubility

Entry Clc1ncnc2ncn(Cc3cn(-[c-]4cccc4)nn3)c12.[Fe+2].c1cc[cH-]c1 [Compound 15c] : reported Kinetic Solubility = ? >100 µM

Entry CC([c-]1cccc1)n1cc(Cn2cnc3c(Cl)ncnc32)nn1.[Fe+2].c1cc[cH-]c1 (centres unmarked) [Compound 13b] : reported Kinetic Solubility = ? 30 to 100 µM

Entry Nc1nc(Cl)c2ncn(Cc3cn(C[c-]4cccc4)nn3)c2n1.[Fe+2].c1cc[cH-]c1 [Compound 14a] : reported Kinetic Solubility = ? 30 to 100 µM

Entry Nc1ncnc2c1ncn2Cc1cn(-[c-]2cccc2)nn1.[Fe+2].c1cc[cH-]c1 [Compound 12c] : reported Kinetic Solubility = ? 3 to 10 µM

Entry Clc1ncnc2c1ccn2Cc1cn(-[c-]2cccc2)nn1.[Fe+2].c1cc[cH-]c1 [Compound 11c] : reported Kinetic Solubility = ? 3 to 10 µM

Entry Clc1ncnc2c1ccn2CCn1cc(-[c-]2cccc2)nn1.[Fe+2].c1cc[cH-]c1 [Compound 34a] : reported Kinetic Solubility = ? 10 to 30 µM

Entry [Fe+2].c1cc[c-](-c2cn(CCn3ccc4c(N5CCCCC5)ncnc43)nn2)c1.c1cc[cH-]c1 [Compound 34c] : reported Kinetic Solubility = ? 10 to 30 µM

Entry [Fe+2].c1cc[c-](-c2cn(CCn3cnc4c(N5CCCCC5)ncnc43)nn2)c1.c1cc[cH-]c1 [Compound 35c] : reported Kinetic Solubility = ? 10 to 30 µM

====

- ASSAY_METHOD_TEXT: Metabolic stability in human liver microsomes
- Format: in vitro ADME
- DETAILS: human, predicted, % of liver blood flow
For each of the compounds below, state its In Vivo CLh (% LBF).
Answer with a number only, understood to be in % LBF.

Entry Clc1ncnc2c1ccn2Cc1cn(-[c-]2cccc2)nn1.[Fe+2].c1cc[cH-]c1 [Compound 11c] : reported In Vivo CLh (% LBF) = ? 95

Entry CC([c-]1cccc1)n1cc(Cn2ccc3c(Cl)ncnc32)nn1.[Fe+2].c1cc[cH-]c1 (stereo not drawn) [Compound 11b] : reported In Vivo CLh (% LBF) = ? 97

Entry CC([c-]1cccc1)n1cc(Cn2cnc3ncnc(Cl)c32)nn1.[Fe+2].c1cc[cH-]c1 (stereo not drawn) [Compound 15b] : reported In Vivo CLh (% LBF) = ? 79

Entry Clc1ncnc2c1ncn2Cc1cn(C[c-]2cccc2)nn1.[Fe+2].c1cc[cH-]c1 [Compound 13a] : reported In Vivo CLh (% LBF) = ? 65

Entry Clc1ncnc2ncn(Cc3cn(C[c-]4cccc4)nn3)c12.[Fe+2].c1cc[cH-]c1 [Compound 15a] : reported In Vivo CLh (% LBF) = ? 58

Entry Clc1ncnc2c1ccn2Cc1cn(C[c-]2cccc2)nn1.[Fe+2].c1cc[cH-]c1 [Compound 11a] : reported In Vivo CLh (% LBF) = ? 90

====

- Test system: MDCKII-hMDR1 cells
- ASSAY_METHOD_TEXT: Permeability and P-gp substrate assessment in MDCKII-hMDR1 cell monolayer
- Type: in vitro ADME, canine
- DETAILS: MDCKII-hMDR1, in words

- COMPOUND: "Clc1ncnc2c1ccn2Cc1cn(-[c-]2cccc2)nn1.[Fe+2].c1cc[cH-]c1 [Compound 11c]"
  Permeability classification: "moderate AB permeability"
- COMPOUND: "CC([c-]1cccc1)n1cc(Cn2cnc3ncnc(Cl)c32)nn1.[Fe+2].c1cc[cH-]c1 (stereo not shown) [Compound 15b]"
  Permeability classification: "moderate AB permeability"

====

- ASSAY_METHOD_TEXT: Chrom logD determination (fast-gradient HPLC)
- DETAILS: pH 7.4
READOUT_TYPE: Chrom logD
Output spec: single numeric token, no unit.

Entry Clc1ncnc2c1ccn2Cc1cn(C[c-]2cccc2)nn1.[Fe+2].c1cc[cH-]c1 [Compound 11a] : reported Chrom logD = ? 5.62

Entry CC([c-]1cccc1)n1cc(Cn2cnc3c(Cl)ncnc32)nn1.[Fe+2].c1cc[cH-]c1 (stereo not drawn) [Compound 13b] : reported Chrom logD = ? 4.64

Entry Nc1nc(Cl)c2ncn(Cc3cn(C[c-]4cccc4)nn3)c2n1.[Fe+2].c1cc[cH-]c1 [Compound 14a] : reported Chrom logD = ? 3.62

Entry Nc1ncnc2c1ncn2Cc1cn(-[c-]2cccc2)nn1.[Fe+2].c1cc[cH-]c1 [Compound 12c] : reported Chrom logD = ? 2.64

Entry Nc1ncnc2c1ncn2Cc1cn(C[c-]2cccc2)nn1.[Fe+2].c1cc[cH-]c1 [Compound 12a] : reported Chrom logD = ? 2.85

Entry CC([c-]1cccc1)n1cc(Cn2cnc3c(Cl)nc(N)nc32)nn1.[Fe+2].c1cc[cH-]c1 (stereo not drawn) [Compound 14b] : reported Chrom logD = ? 3.90

Entry Nc1nc(Cl)c2ncn(Cc3cn(-[c-]4cccc4)nn3)c2n1.[Fe+2].c1cc[cH-]c1 [Compound 14c] : reported Chrom logD = ? 3.50

Entry CC([c-]1cccc1)n1cc(Cn2ccc3c(Cl)ncnc32)nn1.[Fe+2].c1cc[cH-]c1 (stereo not drawn) [Compound 11b] : reported Chrom logD = ? 5.94

Entry [Fe+2].c1cc[c-](-c2cn(CCn3cnc4c(N5CCCCC5)ncnc43)nn2)c1.c1cc[cH-]c1 [Compound 35c] : reported Chrom logD = ? 5.02

Entry [Fe+2].c1cc[c-](-c2cn(CCn3ccc4c(N5CCCC5)ncnc43)nn2)c1.c1cc[cH-]c1 [Compound 34b] : reported Chrom logD = ? 4.30

Entry Clc1ncnc2c1ncn2CCn1cc(-[c-]2cccc2)nn1.[Fe+2].c1cc[cH-]c1 [Compound 35a] : reported Chrom logD = ? 3.70

Entry [Fe+2].c1cc[c-](-c2cn(CCn3ccc4c(N5CCCCC5)ncnc43)nn2)c1.c1cc[cH-]c1 [Compound 34c] : reported Chrom logD = ? 5.49

Entry Clc1ncnc2c1ncn2Cc1cn(C[c-]2cccc2)nn1.[Fe+2].c1cc[cH-]c1 [Compound 13a] : reported Chrom logD = ? 4.27

Entry Clc1ncnc2ncn(Cc3cn(-[c-]4cccc4)nn3)c12.[Fe+2].c1cc[cH-]c1 [Compound 15c] : reported Chrom logD = ? 3.68

Entry Clc1ncnc2c1ncn2Cc1cn(-[c-]2cccc2)nn1.[Fe+2].c1cc[cH-]c1 [Compound 13c] : reported Chrom logD = ? 4.19

Entry Nc1nc(Cl)c2c(ncn2Cc2cn(C[c-]3cccc3)nn2)n1.[Fe+2].c1cc[cH-]c1 [Compound 16a] : reported Chrom logD = ? 3.37

Entry Clc1ncnc2ncn(Cc3cn(C[c-]4cccc4)nn3)c12.[Fe+2].c1cc[cH-]c1 [Compound 15a] : reported Chrom logD = ? 3.82

Entry Clc1ncnc2c1ccn2CCn1cc(-[c-]2cccc2)nn1.[Fe+2].c1cc[cH-]c1 [Compound 34a] : reported Chrom logD = ? 4.92

====

- Test system: MDCKII-hMDR1 cells
- ASSAY_METHOD_TEXT: Permeability and P-gp substrate assessment in MDCKII-hMDR1 cell monolayer
- Type: in vitro ADME, canine
- DETAILS: without P-gp inhibitor
READOUT_TYPE: Efflux Ratio (BA/AB)
Output spec: single numeric token, no unit.

Entry Clc1ncnc2c1ccn2Cc1cn(C[c-]2cccc2)nn1.[Fe+2].c1cc[cH-]c1 [Compound 11a] : reported Efflux Ratio (BA/AB) = ? 2.2

Entry Clc1ncnc2c1ncn2Cc1cn(C[c-]2cccc2)nn1.[Fe+2].c1cc[cH-]c1 [Compound 13a] : reported Efflux Ratio (BA/AB) = ? 2.9

Entry CC([c-]1cccc1)n1cc(Cn2cnc3ncnc(Cl)c32)nn1.[Fe+2].c1cc[cH-]c1 (stereo not drawn) [Compound 15b] : reported Efflux Ratio (BA/AB) = ? 10.7

Entry CC([c-]1cccc1)n1cc(Cn2ccc3c(Cl)ncnc32)nn1.[Fe+2].c1cc[cH-]c1 (stereo not drawn) [Compound 11b] : reported Efflux Ratio (BA/AB) = ? 1.5

Entry Clc1ncnc2c1ccn2Cc1cn(-[c-]2cccc2)nn1.[Fe+2].c1cc[cH-]c1 [Compound 11c] : reported Efflux Ratio (BA/AB) = ? 2.9

Entry Clc1ncnc2ncn(Cc3cn(C[c-]4cccc4)nn3)c12.[Fe+2].c1cc[cH-]c1 [Compound 15a] : reported Efflux Ratio (BA/AB) = ? 7.0
